Attribution: the supplement of paper PMC10598134

assay: collision cross section of modified peptide (TIMS, N2, iRT-aligned); higher = larger / more extended gas-phase ion; conditions: charge state: 3; modification: GlyGly (K)
Give measured collision cross section for each item. Keep answers brief.
Expressed in Å², but write only the number.

Query: Using known records, supply collision cross section for LQAAYAGDKADDIQK [_LQAAYAGDK(GlyGly (K))ADDIQK_]
Response: 505.34

Query: Using known records, supply collision cross section for PANEKATDDYHYEK [_PANEK(GlyGly (K))ATDDYHYEK_]
Response: 506.82

Query: Using known records, supply collision cross section for DAEAAEATAEGALKAEK [_DAEAAEATAEGALK(GlyGly (K))AEK_]
Response: 538.51

Query: Using known records, supply collision cross section for DTGEKLTVAENEAETK [_DTGEK(GlyGly (K))LTVAENEAETK_]
Response: 490.28

Query: Using known records, supply collision cross section for LLEEEDSKLK [_LLEEEDSK(GlyGly (K))LK_]
Response: 453.7

Query: Using known records, supply collision cross section for YEQEHAAIQDKLFQVAK [_YEQEHAAIQDK(GlyGly (K))LFQVAK_]
Response: 562.29

Query: Using known records, supply collision cross section for IQTKAGEATVK [_IQTK(GlyGly (K))AGEATVK_]
Response: 455.83

Query: Using known records, supply collision cross section for GSLGAQKLANTCFNEIEK [_GSLGAQK(GlyGly (K))LANTCFNEIEK_]
Response: 528.63

Query: Using known records, supply collision cross section for VGTASVLQPVKK [_VGTASVLQPVK(GlyGly (K))K_]
Response: 466.32

Query: Using known records, supply collision cross section for LDEKENLSAK [_LDEK(GlyGly (K))ENLSAK_]
Response: 437.31

Query: Using known records, supply collision cross section for LEQVEKELLR [_LEQVEK(GlyGly (K))ELLR_]
Response: 460.7

Query: Using known records, supply collision cross section for SLGEPAAGEGSAKR [_SLGEPAAGEGSAK(GlyGly (K))R_]
Response: 486.35

Query: Using known records, supply collision cross section for GFALVGVGSEASSKK [_GFALVGVGSEASSK(GlyGly (K))K_]
Response: 507.31

Query: Using known records, supply collision cross section for LEKTIDDLEEK [_LEK(GlyGly (K))TIDDLEEK_]
Response: 473.69

Query: Using known records, supply collision cross section for TTGFYSGFSEVAEKR [_TTGFYSGFSEVAEK(GlyGly (K))R_]
Response: 525.41

---

experiment: collision cross section of unmodified peptide (TIMS, N2, iRT-aligned); higher = larger / more extended gas-phase ion; settings: charge state: 2
Parameter threshold = 400 Å². Response is y when collision cross section meets or exceeds it, else n.

Query: Reported collision cross section reaches at least 400 Å² for "STGLELETPSLVPVKK" ?
Response: y

Query: Reported collision cross section reaches at least 400 Å² for "VGIDTPDIDIHGPEGKLK" ?
Response: y

Query: Reported collision cross section reaches at least 400 Å² for "VETFSGVYK" ?
Response: n

Query: Reported collision cross section reaches at least 400 Å² for "GSAPPGPVPEGSIR" ?
Response: n

Query: Reported collision cross section reaches at least 400 Å² for "GEVGAGAGPGAQAGPSAKR" ?
Response: y

Query: Reported collision cross section reaches at least 400 Å² for "TQSFSLQER" ?
Response: n

Query: Reported collision cross section reaches at least 400 Å² for "SPDEAYAIAKK" ?
Response: n

Query: Reported collision cross section reaches at least 400 Å² for "FPGVGVLPGVPTGAGVKPK" ?
Response: y

Query: Reported collision cross section reaches at least 400 Å² for "DYVSQFEGSALGK" ?
Response: n

Query: Reported collision cross section reaches at least 400 Å² for "GEGGFGGRGGGR" ?
Response: n

Query: Reported collision cross section reaches at least 400 Å² for "LSITGTYDLK" ?
Response: n

Query: Reported collision cross section reaches at least 400 Å² for "ISEILLDHGAPIQAK" ?
Response: y

Query: Reported collision cross section reaches at least 400 Å² for "SVGGSGGGSFGDNLVTR" ?
Response: y

Query: Reported collision cross section reaches at least 400 Å² for "VEPGSLESSPGLGRGR" ?
Response: y

Query: Reported collision cross section reaches at least 400 Å² for "GQKGEPGLPGHPGK" ?
Response: n

Query: Reported collision cross section reaches at least 400 Å² for "SEASSEFAKK" ?
Response: n

---

experiment: collision cross section of modified peptide (TIMS, N2, iRT-aligned); higher = larger / more extended gas-phase ion; conditions: charge state: 2; modification: Succinyl
measuredAttribute: collision cross section (Å²)
Expressed in Å², but write only the number.

Query: Using known records, supply collision cross section for IQTKAGEATVK [_IQTK(Succinyl)AGEATVK_]
Response: 366.8

Query: Using known records, supply collision cross section for GTISAPGKVVTAAAQAK [_GTISAPGK(Succinyl)VVTAAAQAK_]
Response: 439.98

Query: Using known records, supply collision cross section for DYSSGFGGKYGVQADR [_DYSSGFGGK(Succinyl)YGVQADR_]
Response: 438.99

Query: Using known records, supply collision cross section for DTPTSAGPNSFNKGK [_DTPTSAGPNSFNK(Succinyl)GK_]
Response: 411.39

Query: Using known records, supply collision cross section for SKLLFSNTAAQK [_SK(Succinyl)LLFSNTAAQK_]
Response: 398.22

Query: Using known records, supply collision cross section for SLEEEGAAHSGKR [_SLEEEGAAHSGK(Succinyl)R_]
Response: 416.07

Query: Using known records, supply collision cross section for VFIGNLNTLVVKK [_VFIGNLNTLVVK(Succinyl)K_]
Response: 423.07

Query: Using known records, supply collision cross section for FLQEFYQDDELGKK [_FLQEFYQDDELGK(Succinyl)K_]
Response: 450.32

Query: Using known records, supply collision cross section for SLFFGGKGAPLQR [_SLFFGGK(Succinyl)GAPLQR_]
Response: 401.28

Query: Using known records, supply collision cross section for VYIASSSGSTAIKK [_VYIASSSGSTAIK(Succinyl)K_]
Response: 413.08

Query: Using known records, supply collision cross section for GGPGSTLSFVGKR [_GGPGSTLSFVGK(Succinyl)R_]
Response: 387.5

Query: Using known records, supply collision cross section for VLDSGAPIKIPVGPETLGR [_VLDSGAPIK(Succinyl)IPVGPETLGR_]
Response: 470.32

Query: Using known records, supply collision cross section for ASNAAVKLAESK [_ASNAAVK(Succinyl)LAESK_]
Response: 372.84

Query: Using known records, supply collision cross section for VFSIISSEKELK [_VFSIISSEK(Succinyl)ELK_]
Response: 409.2

Query: Using known records, supply collision cross section for ASDTSSETVFGKR [_ASDTSSETVFGK(Succinyl)R_]
Response: 396.57

Query: Using known records, supply collision cross section for DESFLGKLGGTLAR [_DESFLGK(Succinyl)LGGTLAR_]
Response: 416.2

Query: Using known records, supply collision cross section for TGGTQTDLFTCGKCK [_TGGTQTDLFTCGK(Succinyl)CK_]
Response: 437.09

Query: Using known records, supply collision cross section for GSLGAQKLANTCFNEIEK [_GSLGAQK(Succinyl)LANTCFNEIEK_]
Response: 470.21

Query: Using known records, supply collision cross section for AAINQKLIETGER [_AAINQK(Succinyl)LIETGER_]
Response: 409.41

Query: Using known records, supply collision cross section for TVSKVDDFLANEAK [_TVSK(Succinyl)VDDFLANEAK_]
Response: 425.01

Query: Using known records, supply collision cross section for YIEIYVQKVNPSR [_YIEIYVQK(Succinyl)VNPSR_]
Response: 436.15

Query: Using known records, supply collision cross section for IQQELQTAKK [_IQQELQTAK(Succinyl)K_]
Response: 376.48

Query: Using known records, supply collision cross section for VSPASSVDSNIPSSQGYKK [_VSPASSVDSNIPSSQGYK(Succinyl)K_]
Response: 467.79

Query: Using known records, supply collision cross section for VLTANSNPSSPSAAKR [_VLTANSNPSSPSAAK(Succinyl)R_]
Response: 430.61

Query: Using known records, supply collision cross section for SLGEPAAGEGSAKR [_SLGEPAAGEGSAK(Succinyl)R_]
Response: 381.88

Query: Using known records, supply collision cross section for DDSFLGKLGGTLAR [_DDSFLGK(Succinyl)LGGTLAR_]
Response: 412.99

---

assay: collision cross section of modified peptide (TIMS, N2, iRT-aligned); higher = larger / more extended gas-phase ion; settings: charge state: 2; modification: Malonyl
Give measured collision cross section for each item. Keep answers brief.
Expressed in Å², but write only the number.

Query: Using known records, supply collision cross section for LLFSNTAAQKLR [_LLFSNTAAQK(Malonyl)LR_]
Response: 400.72

Query: Using known records, supply collision cross section for AAINQKLIETGER [_AAINQK(Malonyl)LIETGER_]
Response: 404.84

Query: Using known records, supply collision cross section for SSGPGGQNVNKVNSK [_SSGPGGQNVNK(Malonyl)VNSK_]
Response: 402.61

Query: Using known records, supply collision cross section for LEEVTGKLQVAR [_LEEVTGK(Malonyl)LQVAR_]
Response: 393.19

Query: Using known records, supply collision cross section for ALASIDSKLNQAK [_ALASIDSK(Malonyl)LNQAK_]
Response: 399.65

Query: Using known records, supply collision cross section for SITHSTVGSKGEK [_SITHSTVGSK(Malonyl)GEK_]
Response: 390.69

Query: Using known records, supply collision cross section for IISSIEQKEENK [_IISSIEQK(Malonyl)EENK_]
Response: 405.63
